target: D(1A) dopamine receptor (Rattus norvegicus); assay: Binding affinity at Dopamine receptor D1 in rat neostriatum by [3H]-SCH- 23390 displacement.
Sequence (P18901 whole entry): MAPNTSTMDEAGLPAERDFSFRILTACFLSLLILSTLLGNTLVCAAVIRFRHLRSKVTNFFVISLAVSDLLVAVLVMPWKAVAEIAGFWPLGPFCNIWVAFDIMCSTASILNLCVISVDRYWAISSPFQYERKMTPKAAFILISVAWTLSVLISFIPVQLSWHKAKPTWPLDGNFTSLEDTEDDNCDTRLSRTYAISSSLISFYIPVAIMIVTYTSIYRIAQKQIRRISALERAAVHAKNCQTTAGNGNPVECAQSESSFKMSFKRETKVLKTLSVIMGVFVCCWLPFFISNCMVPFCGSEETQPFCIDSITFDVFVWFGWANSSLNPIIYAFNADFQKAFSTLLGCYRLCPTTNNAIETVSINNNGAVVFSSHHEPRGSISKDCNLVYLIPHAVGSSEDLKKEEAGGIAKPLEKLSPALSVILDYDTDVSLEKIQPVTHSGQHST
MEASUREMENT TYPE: log10(Ki) (log10 of the value in nM)
# log10 transformed; quantity=Ki; unit=nM

-- ask Look up log10(Ki): `C[C@@]1(c2ccccc2)c2cc(O)c(O)cc2C[C@@]1(C)N`
-- reply 0.74

-- ask Try CCCN(C)[C@@H]1Cc2ccc(O)cc2[C@H]1c1ccccc1 (stereo in doubt; (+)-17a) next.
-- reply -0.05

-- ask Try CCCN(CCC)[C@@H]1Cc2ccc(O)cc2[C@H]1c1ccccc1 (stereo in doubt; (-)-15a) next.
-- reply 1.42

-- ask Try N[C@@H]1Cc2ccc(O)cc2[C@H]1c1ccccc1 (stereo in doubt; (-)-14a) next.
-- reply 1.54

-- ask Try N[C@@H]1Cc2cc(O)ccc2[C@H]1c1ccccc1 (stereo in doubt; (-)-14b) next.
-- reply 1.27

-- ask Try CCCN(CCC)[C@@H]1Cc2cc(O)ccc2[C@H]1c1ccccc1 (stereo in doubt; (+)-15b) next.
-- reply 0.15

-- ask Try N[C@@H]1Cc2cc(O)ccc2[C@H]1c1ccccc1 (stereo in doubt; (+)-14b) next.
-- reply 0.27

-- ask Try CCCN(CCC)[C@@H]1Cc2ccc(O)cc2[C@H]1c1ccccc1 (stereo in doubt; (+)-15a) next.
-- reply 1.45

-- ask Try N[C@@H]1Cc2ccc(O)cc2[C@H]1c1ccccc1 (stereo in doubt; (+)-14a) next.
-- reply 0.40

-- ask Try C=CCN(C)[C@@H]1Cc2ccc(O)cc2[C@H]1c1ccccc1 (stereo in doubt; (-)-16a) next.
-- reply -0.10

-- ask Try C=CCN(C)[C@@H]1Cc2ccc(O)cc2[C@H]1c1ccccc1 (stereo in doubt; (+)-16a) next.
-- reply 0.48

-- ask Try CCCN(C)[C@@H]1Cc2ccc(O)cc2[C@H]1c1ccccc1 (stereo in doubt; (-)-17a) next.
-- reply -0.06

-- ask Try CCCN(CCC)[C@@H]1Cc2cc(O)ccc2[C@H]1c1ccccc1 (stereo in doubt; (-)-15b) next.
-- reply 0.25

---

So I've got a bunch of molecules here, and I need their Ki values.
molecular target: D(2) dopamine receptor (Rattus norvegicus); assay: Binding affinity at Dopamine receptor D2 in rat neostriatum frozen sections by [3H]-spiperone displacement.
Sequence (P61169 whole entry): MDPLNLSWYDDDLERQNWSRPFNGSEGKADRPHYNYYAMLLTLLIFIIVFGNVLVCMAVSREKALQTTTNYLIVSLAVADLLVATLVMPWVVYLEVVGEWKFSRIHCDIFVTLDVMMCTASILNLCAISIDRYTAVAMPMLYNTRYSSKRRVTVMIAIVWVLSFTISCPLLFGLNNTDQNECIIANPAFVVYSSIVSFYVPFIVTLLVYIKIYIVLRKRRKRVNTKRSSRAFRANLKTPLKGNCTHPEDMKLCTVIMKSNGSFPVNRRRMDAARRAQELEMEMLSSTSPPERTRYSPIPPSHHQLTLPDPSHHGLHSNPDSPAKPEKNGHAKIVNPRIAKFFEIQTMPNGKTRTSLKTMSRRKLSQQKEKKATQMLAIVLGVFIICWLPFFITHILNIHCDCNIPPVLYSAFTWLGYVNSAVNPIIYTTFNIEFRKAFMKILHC

-- ask Look up Ki: N[C@@H]1Cc2cc(O)ccc2[C@H]1c1ccccc1 (stereo in doubt; (+)-14b)
-- reply > 1 µM

-- ask Try CCCN(C)[C@@H]1Cc2ccc(O)cc2[C@H]1c1ccccc1 (stereo in doubt; (-)-17a) next.
-- reply 0.00034 µM

-- ask Try C=CCN(C)[C@@H]1Cc2cc(O)ccc2[C@H]1c1ccccc1 (stereo in doubt; (+)-16b) next.
-- reply > 1 µM

-- ask Try `C[C@@]1(c2ccccc2)c2cc(O)c(O)cc2C[C@@]1(C)N` next.
-- reply > 1 µM

-- ask Try CCCN(CCC)[C@@H]1Cc2ccc(O)cc2[C@H]1c1ccccc1 (stereo in doubt; (+)-15a) next.
-- reply 0.0515 µM

-- ask Try C=CCN(C)[C@@H]1Cc2ccc(O)cc2[C@H]1c1ccccc1 (stereo in doubt; (-)-16a) next.
-- reply 0.00043 µM

-- ask Try CCCN(C)[C@@H]1Cc2ccc(O)cc2[C@H]1c1ccccc1 (stereo in doubt; (+)-17a) next.
-- reply 0.0003 µM

-- ask Try CCCN(CCC)[C@@H]1Cc2cc(O)ccc2[C@H]1c1ccccc1 (stereo in doubt; (+)-15b) next.
-- reply > 1 µM

-- ask Try CCCN(C)[C@@H]1Cc2cc(O)ccc2[C@H]1c1ccccc1 (stereo in doubt; (-)-17b) next.
-- reply > 1 µM
